# study.target: UCHL3 (UniProt P15374)
# Sequence (whole entry): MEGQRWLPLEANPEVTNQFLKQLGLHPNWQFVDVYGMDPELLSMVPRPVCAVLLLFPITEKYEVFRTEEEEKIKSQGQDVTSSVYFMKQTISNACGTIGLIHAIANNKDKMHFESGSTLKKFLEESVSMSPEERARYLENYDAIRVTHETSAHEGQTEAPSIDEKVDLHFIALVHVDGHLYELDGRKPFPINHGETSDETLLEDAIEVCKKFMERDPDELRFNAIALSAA
# assay.overview: log2 ratio of Biotin-Ahx-Ub-VS probe labelling (fragment/DMSO); higher = less target engagement (more negative = stronger competition), active = hit call of the paper (q ≤ 0.05, log2 ratio ≤ -1)
# measurement.parameters: compound concentration: 200 uM; treatment time: 3 h
Use criterion met when the recorded log2 ratio of Biotin-Ahx-Ub-VS probe labelling is no lower than 0.1; use criterion not met when it is lower.

Answered examples (3):
{"compound": "Cc1ccc(C(=O)NCCNC(=O)CCl)cc1", "study.target": "UCHL3 (UniProt P15374)", "label.value": "criterion met"}
{"compound": "O=C(CCl)NCCC1COCCO1 (stereo not drawn)", "study.target": "UCHL3 (UniProt P15374)", "label.value": "criterion met"}
{"compound": "O=C(CCl)Nc1ccc(F)cc1Cl", "study.target": "UCHL3 (UniProt P15374)", "label.value": "criterion not met"}

IN: In plain terms: is recorded log2 ratio of Biotin-Ahx-Ub-VS probe labelling at least 0.1 for `O=C(CCl)N1CC2(CCOCC2)C1` ?
OUT: criterion met

IN: In plain terms: is recorded log2 ratio of Biotin-Ahx-Ub-VS probe labelling at least 0.1 for `O=C(CCl)N1CCOC2(CCC2)C1` ?
OUT: criterion met

IN: In plain terms: is recorded log2 ratio of Biotin-Ahx-Ub-VS probe labelling at least 0.1 for `O=C(CCl)Nc1ccc(Cl)c(F)c1` ?
OUT: criterion not met

IN: In plain terms: is recorded log2 ratio of Biotin-Ahx-Ub-VS probe labelling at least 0.1 for `O=C(CCl)NCc1ccc2c(c1)OCO2` ?
OUT: criterion not met

IN: In plain terms: is recorded log2 ratio of Biotin-Ahx-Ub-VS probe labelling at least 0.1 for `Cl.O=C(CCl)NCCN1CCc2ccccc21` ?
OUT: criterion not met
